# Tgt: T1, cyIL-18Rβ-HisAvi (cynomolgus monkey)
# T1 construct: Soluble analyte in SPR; also called cyno IL-18Rβ; cynomolgus monkey IL-18Rβ
# T1 chain: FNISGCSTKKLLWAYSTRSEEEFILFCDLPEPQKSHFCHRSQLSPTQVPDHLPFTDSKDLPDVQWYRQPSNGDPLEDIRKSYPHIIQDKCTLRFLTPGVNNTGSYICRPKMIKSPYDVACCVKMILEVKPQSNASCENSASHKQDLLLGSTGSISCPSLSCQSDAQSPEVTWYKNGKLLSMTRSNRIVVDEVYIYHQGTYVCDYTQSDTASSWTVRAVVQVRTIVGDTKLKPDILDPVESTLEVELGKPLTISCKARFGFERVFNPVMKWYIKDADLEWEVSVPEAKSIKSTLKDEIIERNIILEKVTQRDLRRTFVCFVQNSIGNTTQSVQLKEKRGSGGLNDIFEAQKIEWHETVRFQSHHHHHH
# Test Details: SPR T200, mAb on anti-hFc, 37C, pH 6
Below is a list of entries, each paired with its recorded Kd value.
Report the value in nM with no unit label.

P20-V1 (antibody, human IgG1, kappa, V domains shown, Variant of P20) VH: QVQLQESGPGLVKPSETLSLTCTVSGGSINNYYWSWIRQPPGKGLEWIGYIFYSGTTNYNPSLKSRVTISVDTSKNQFSLKLSSVTAADTAVYYCARDVGIAARNSYYYVMDVWGQGTTVTVSS VL: AIQLTQSPSSLSASVGDRVTITCRASQGISSALAWYQQKPGKAPKFLIYEASSLESGVPSRFSGSGSGTDFTLTISSLQPEDFATYYCQQFNSYPITFGQGTRLEIKR
1.7

Record P20-V2 (antibody, human IgG1, kappa, V domains shown, Variant of P20) VH: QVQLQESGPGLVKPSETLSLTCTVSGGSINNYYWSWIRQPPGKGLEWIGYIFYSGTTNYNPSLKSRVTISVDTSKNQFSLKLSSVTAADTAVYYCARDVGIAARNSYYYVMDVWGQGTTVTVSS VL: AIQLTQSPSSLSASVGDRVTITCRASQGISSALAWYQQKPGKAPKFLIYEGSSLESGVPSRFSGSGSGTDFTLTISSLQPEDFATYYCQQFNSYPITFGQGTRLEIKR , field Kd: 1.4
